Consider the following compounds and their measured Ki readings.
# Measurement target: DDR2 (Homo sapiens)
# Construct: purchased Life Technologies
# Sequence (Q16832 22-855): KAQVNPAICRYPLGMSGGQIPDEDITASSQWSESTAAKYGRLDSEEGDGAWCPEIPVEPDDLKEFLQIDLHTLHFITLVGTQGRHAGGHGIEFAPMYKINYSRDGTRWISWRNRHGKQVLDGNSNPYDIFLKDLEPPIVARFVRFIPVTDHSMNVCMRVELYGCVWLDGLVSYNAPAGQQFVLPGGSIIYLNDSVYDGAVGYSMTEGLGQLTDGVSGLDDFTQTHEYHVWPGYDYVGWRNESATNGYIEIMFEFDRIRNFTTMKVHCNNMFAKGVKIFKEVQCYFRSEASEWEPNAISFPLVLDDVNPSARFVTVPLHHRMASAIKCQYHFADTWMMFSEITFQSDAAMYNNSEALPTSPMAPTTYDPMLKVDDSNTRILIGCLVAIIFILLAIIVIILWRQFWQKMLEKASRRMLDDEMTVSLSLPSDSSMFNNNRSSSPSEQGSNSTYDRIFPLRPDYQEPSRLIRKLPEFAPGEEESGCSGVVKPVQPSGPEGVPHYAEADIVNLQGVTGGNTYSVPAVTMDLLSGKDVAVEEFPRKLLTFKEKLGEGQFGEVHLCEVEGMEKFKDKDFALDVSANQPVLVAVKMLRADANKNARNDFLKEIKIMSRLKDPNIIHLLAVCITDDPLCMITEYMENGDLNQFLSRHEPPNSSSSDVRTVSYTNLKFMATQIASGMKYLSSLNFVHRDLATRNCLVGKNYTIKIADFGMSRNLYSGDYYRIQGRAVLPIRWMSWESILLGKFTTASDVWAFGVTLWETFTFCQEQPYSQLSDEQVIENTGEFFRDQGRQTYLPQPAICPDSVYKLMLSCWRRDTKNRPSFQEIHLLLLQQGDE
# Measurement notes: LanthaScreen Europium Kinase Binding assay, DDR2
# Settings: 5 nM DDR2, 10 nM Kinase Tracer 178, 1 h at rt; Ki from IC50 by Cheng-Prusoff; read-out: Ki DDR2

[
  {
    "Compound": "CCc1ccc(C(F)(F)F)cc1NC(=O)NC1CC2(C1)CN(C(=O)c1cnn3ccn(C)c13)C2 [Example 282]",
    "Ki": "< 5 nM"
  },
  {
    "Compound": "Cn1ccn2ncc(C(=O)N3CC4(CC(CC(=O)Nc5cccc(C(F)(F)F)c5)C4)C3)c12 [Example 141]",
    "Ki": "< 5 nM"
  },
  {
    "Compound": "Cn1ccn2ncc(C(=O)N3CC4(CC(NC(=O)Nc5cc(C(F)(F)F)ccc5Cl)C4)C3)c12 [Example 45]",
    "Ki": "< 5 nM"
  },
  {
    "Compound": "O=C(Nc1cccc(C(F)(F)F)c1)NC1CC2(C1)CN(C(=O)c1cnn3c1SCC3)C2 [Example 135]",
    "Ki": "5 to 25 nM"
  },
  {
    "Compound": "Cn1ccn2ncc(C(=O)N3CC4(CC(NC(=O)Nc5cc(F)cc(OC(F)(F)F)c5)C4)C3)c12 [Example 124]",
    "Ki": "< 5 nM"
  },
  {
    "Compound": "O=C(Nc1cccc(C(F)(F)F)c1)NC1CC2(C1)CN(C(=O)c1cnn3ccncc13)C2 [Example 2]",
    "Ki": "5 to 25 nM"
  },
  {
    "Compound": "CN(C)Cc1ccc(NC(=O)NC2CC3(C2)CN(C(=O)c2cnn4ccsc24)C3)cc1C(F)(F)F [Example 24]",
    "Ki": "5 to 25 nM"
  },
  {
    "Compound": "CN(C(=O)Nc1cc(OC(F)(F)F)ccn1)C1CC2(C1)CN(c1cnc3[nH]ncc3c1)C2 [Example 219]",
    "Ki": "5 to 25 nM"
  },
  {
    "Compound": "O=C(Nc1cc(C(F)(F)F)ccn1)NC1CC2(C1)CN(C(=O)c1ncnc3ccsc13)C2 [Example 90]",
    "Ki": "< 5 nM"
  },
  {
    "Compound": "Cc1ccc(OC(F)(F)F)cc1NC(=O)N(C)C1CC2(C1)CN(C(=O)c1ccnc3[nH]ncc13)C2 [Example 188]",
    "Ki": "5 to 25 nM"
  },
  {
    "Compound": "COc1ccc(OC(F)(F)F)cc1NC(=O)NC1CC2(C1)CN(C(=O)c1ccnc3ccsc13)C2 [Example 48]",
    "Ki": "5 to 25 nM"
  },
  {
    "Compound": "CN(C(=O)Nc1cccc(C(F)(F)F)c1)C1CC2(C1)CN(C(=O)c1ccnc3[nH]ccc13)C2 [Example 248]",
    "Ki": "5 to 25 nM"
  }
]

====

# Measurement target: DDR2 (Homo sapiens, UniProt Q16832)
# Construct: purchased Life Technologies
# Measurement notes: LanthaScreen Europium Kinase Binding assay, DDR2
# Settings: 5 nM DDR2, 10 nM Kinase Tracer 178, 1 h at rt; Ki from IC50 by Cheng-Prusoff; read-out: Ki DDR2
# Experimental: DDR1 and DDR2 binding assays were performed using Life Technologies LanthaScreen™ Europium Kinase Binding assay. […] IC50 values were determined in GraphPad Prism 7.0 software, using 4 parameter model: log (inhibitor) vs. response. IC50 values were converted in Ki using the Cheng-Prusoff equation (Ki-IC50/(1+ [Tracer]/Kd).
Listing of recorded Ki by entry.

[
  {
    "Smiles notation": "O=C(CC1CC2(C1)CN(C(=O)c1ccnc3ccsc13)C2)Nc1cccc(C(F)(F)F)c1",
    "Ki": "< 5 nM"
  },
  {
    "Smiles notation": "Cc1cc(NC(=O)N(C)C2CC3(C2)CN(C(=O)c2cnn4ccn(C)c24)C3)cc(C(F)(F)F)c1",
    "Ki": "5 to 25 nM"
  },
  {
    "Smiles notation": "Cc1ncc(C(F)(F)F)cc1NC(=O)NC1CC2(C1)CN(C(=O)c1cnn3ccn(C)c13)C2",
    "Ki": "5 to 25 nM"
  },
  {
    "Smiles notation": "CN(C(=O)Nc1cc(OC(F)(F)F)ccn1)C1CC2(C1)CN(C(=O)c1ncnc3[nH]ccc13)C2",
    "Ki": "5 to 25 nM"
  },
  {
    "Smiles notation": "Cc1ccc(-n2nc(C(C)(C)C)cc2NC(=O)NC2CC3(C2)CN(C(=O)c2cnn4ccsc24)C3)cc1",
    "Ki": "5 to 25 nM"
  },
  {
    "Smiles notation": "COc1cc(NC(=O)N(C)C2CC3(C2)CN(C(=O)c2cnn4ccn(C)c24)C3)cc(C(F)(F)F)c1",
    "Ki": "5 to 25 nM"
  },
  {
    "Smiles notation": "O=C(Nc1cccc(C(F)(F)F)c1)NC1CC2(C1)CN(C(=O)c1ccnc3[nH]ncc13)C2",
    "Ki": "< 5 nM"
  },
  {
    "Smiles notation": "CN(C(=O)Nc1cc(C(F)(F)F)ccn1)C1CC2(C1)CN(C(=O)c1cnn3ccn(CCO)c13)C2",
    "Ki": "5 to 25 nM"
  },
  {
    "Smiles notation": "O=C(Nc1cccc(C(F)(F)F)c1)NC1CC2(C1)CN(Cc1cnc3cnccn13)C2",
    "Ki": "5 to 25 nM"
  },
  {
    "Smiles notation": "CN(C(=O)Nc1cc(C(F)(F)F)cc(Br)n1)C1CC2(C1)CN(C(=O)c1cnn3ccn(C)c13)C2",
    "Ki": "< 5 nM"
  },
  {
    "Smiles notation": "CCn1ccn2ncc(C(=O)N3CC4(CC(NC(=O)Nc5cccc(C(F)(F)F)c5)C4)C3)c12",
    "Ki": "< 5 nM"
  },
  {
    "Smiles notation": "COc1c(CO)cc(OC(F)(F)F)cc1NC(=O)NC1CC2(C1)CN(C(=O)c1cnn3ccn(C)c13)C2",
    "Ki": "25 to 100 nM"
  },
  {
    "Smiles notation": "COc1ccc(OC(F)(F)F)cc1NC(=O)NC1CC2(C1)CN(C(=O)c1cnn3ccn(C)c13)C2",
    "Ki": "5 to 25 nM"
  },
  {
    "Smiles notation": "O=C(Nc1cc(OC(F)(F)F)ccn1)NC1CC2(C1)CN(C(=O)c1ccnc3[nH]ncc13)C2",
    "Ki": "5 to 25 nM"
  },
  {
    "Smiles notation": "CN(C(=O)Nc1cc(C#N)cc(OC(F)(F)F)c1)C1CC2(C1)CN(C(=O)c1cnn3ccn(C)c13)C2",
    "Ki": "< 5 nM"
  }
]

====

# Measurement target: DDR2 (Homo sapiens, UniProt Q16832)
# Construct: purchased Life Technologies
# Measurement notes: LanthaScreen Europium Kinase Binding assay, DDR2
# Settings: 5 nM DDR2, 10 nM Kinase Tracer 178, 1 h at rt; Ki from IC50 by Cheng-Prusoff; read-out: Ki DDR2
Observed property: Ki

[
  {
    "Smiles notation": "CN(C(=O)Nc1cc(C(F)(F)F)ncn1)C1CC2(C1)CN(C(=O)c1cnn3ccn(C)c13)C2",
    "Observed property": "Ki",
    "Reported measurement": "> 100 nM"
  },
  {
    "Smiles notation": "CN(C(=O)Nc1cc(I)ccn1)C1CC2(C1)CN(C(=O)c1cnn3ccn(C)c13)C2",
    "Observed property": "Ki",
    "Reported measurement": "5 to 25 nM"
  },
  {
    "Smiles notation": "Cc1c(F)cc(NC(=O)N(C)C2CC3(C2)CN(C(=O)c2cnn4ccn(C)c24)C3)cc1C(F)(F)F",
    "Observed property": "Ki",
    "Reported measurement": "< 5 nM"
  },
  {
    "Smiles notation": "Cn1ccn2ncc(C(=O)N3CC4(CC(NC(=O)Nc5cc(OC(F)(F)F)ccc5Cl)C4)C3)c12",
    "Observed property": "Ki",
    "Reported measurement": "< 5 nM"
  },
  {
    "Smiles notation": "O=C(Nc1cc(OC(F)(F)F)ccn1)NC1CC2(C1)CN(C(=O)c1cnn3ccsc13)C2",
    "Observed property": "Ki",
    "Reported measurement": "< 5 nM"
  },
  {
    "Smiles notation": "O=C(Nc1cccc(C(F)(F)F)c1)NC1CC2(C1)CN(C(=O)c1ccncc1)C2",
    "Observed property": "Ki",
    "Reported measurement": "25 to 100 nM"
  },
  {
    "Smiles notation": "CN(C(=O)Nc1cc(C#N)cc(C(F)(F)F)c1)C1CC2(C1)CN(C(=O)c1ncnc3[nH]ccc13)C2",
    "Observed property": "Ki",
    "Reported measurement": "5 to 25 nM"
  },
  {
    "Smiles notation": "CN(C(=O)Nc1cc(C(F)(F)C(F)(F)F)ccn1)C1CC2(C1)CN(C(=O)c1cnn3ccn(C)c13)C2",
    "Observed property": "Ki",
    "Reported measurement": "5 to 25 nM"
  },
  {
    "Smiles notation": "Cn1cc(-c2ccc3c(C(=O)N4CC5(CC(NC(=O)Nc6cccc(C(F)(F)F)c6)C5)C4)cnn3c2)cn1",
    "Observed property": "Ki",
    "Reported measurement": "< 5 nM"
  },
  {
    "Smiles notation": "Cn1ccn2ncc(C(=O)N3CC4(CC(CC(=O)Nc5cc(C(F)(F)F)ccn5)C4)C3)c12",
    "Observed property": "Ki",
    "Reported measurement": "< 5 nM"
  },
  {
    "Smiles notation": "Cc1ncc(C(F)(F)F)cc1NC(=O)NC1CC2(C1)CN(C(=O)c1cnn3ccsc13)C2",
    "Observed property": "Ki",
    "Reported measurement": "5 to 25 nM"
  },
  {
    "Smiles notation": "CC1(NC(=O)Nc2cccc(C(F)(F)F)c2)CC2(CN(C(=O)c3ncnc4ccsc34)C2)C1",
    "Observed property": "Ki",
    "Reported measurement": "5 to 25 nM"
  },
  {
    "Smiles notation": "CN(C(=O)Nc1cc(C(C)(C)C)on1)C1CC2(C1)CN(C(=O)c1cnn3ccn(C)c13)C2",
    "Observed property": "Ki",
    "Reported measurement": "25 to 100 nM"
  },
  {
    "Smiles notation": "COc1ccc2c(C(=O)N3CC4(CC(N(C)C(=O)Nc5cncc(C(F)(F)F)c5)C4)C3)cnn2c1",
    "Observed property": "Ki",
    "Reported measurement": "25 to 100 nM"
  },
  {
    "Smiles notation": "O=C(Nc1cccc(C(F)(F)F)c1)NC1CC2(C1)CN(C(=O)c1cnc3sccn13)C2",
    "Observed property": "Ki",
    "Reported measurement": "< 5 nM"
  }
]

Where do these numbers come from? They come from patent US20260285855A1.
